tested on: Mus musculus; experiment: Effect on femur length in ovariectomized mouse at 0.1103 mmol/kg, ip once daily for 4 weeks; assay type: functional
Where a SMILES comes first, the peptide text is derived from it. The star is where a group is joined. Succinyl(O17-estradiol) = C[C@]12CC[C@@H]3c4ccc(O)cc4CC[C@H]3[C@@H]1CC[C@@H]2OC(=O)CCC(=O)*; X2 = C[C@]12CC[C@@H]3c4ccc(OCC(=O)*)cc4CC[C@H]3[C@@H]1CCC2=O; X1 = C[C@]12CC[C@@H]3c4ccc(OCC(=O)*)cc4CC[C@H]3[C@@H]1CCC2O
valueType: Activity (cm)
Just the number please, in cm, no unit attached.

Here are 3 compounds together with their reported answers.
{"compound": "C[C@]12CC[C@@H]3c4ccc(O)cc4CC[C@H]3[C@@H]1CC[C@@H]2OC(=O)CCC(=O)N[C@@H](CCCNC(=N)N)C(=O)NCC(=O)N[C@@H](CC(=O)O)C(=O)N[C@@H](CO)C(=O)O ({Succinyl(O17-estradiol)}-RGDS-OH)", "Activity / cm": 1.634}
{"compound": "CC(C)[C@H](NC(=O)[C@H](CC(=O)O)NC(=O)CNC(=O)[C@@H](N)CCCNC(=N)N)C(=O)O (H-RGDV-OH)", "Activity / cm": 1.614}
{"compound": "N=C(N)NCCC[C@H](N)C(=O)NCC(=O)N[C@@H](CC(=O)O)C(=O)N[C@@H](Cc1ccccc1)C(=O)O (H-RGDF-OH)", "Activity / cm": 1.62}

Request: Identify the reported Activity for the following entry. CC(C)[C@H](NC(=O)[C@H](CC(=O)O)NC(=O)CNC(=O)[C@H](CCCNC(=N)N)NC(=O)COc1ccc2c(c1)CC[C@@H]1[C@@H]2CC[C@]2(C)C(=O)CC[C@@H]12)C(=O)O (X2-RGDV-OH)
Response: 1.628

Request: Indicate its recorded Activity; the compound in question is N=C(N)NCCC[C@H](N)C(=O)NCC(=O)N[C@@H](CC(=O)O)C(=O)N[C@@H](CO)C(=O)O
Response: 1.617

Request: Report Activity, nothing else, for this compound: CC(C)[C@H](NC(=O)[C@H](CC(=O)O)NC(=O)CNC(=O)[C@H](CCCNC(=N)N)NC(=O)COc1ccc2c(c1)CC[C@@H]1[C@@H]2CC[C@]2(C)C(O)CC[C@@H]12)C(=O)O (stereo not given in full) (X1-RGDV-OH)
Response: 1.64

Request: Identify measured Activity corresponding to CC(C)[C@H](NC(=O)[C@H](CC(=O)O)NC(=O)CNC(=O)[C@H](CCCNC(=N)N)NC(=O)CCC(=O)O[C@H]1CC[C@H]2[C@@H]3CCc4cc(O)ccc4[C@H]3CC[C@]12C)C(=O)O ({Succinyl(O17-estradiol)}-RGDV-OH)
Response: 1.655

Request: Answer with reported Activity of C[C@]12CC[C@@H]3c4ccc(O)cc4CC[C@H]3[C@@H]1CC[C@@H]2O
Response: 1.63

Request: Supply reported Activity belonging to this compound: C[C@]12CC[C@@H]3c4ccc(OCC(=O)N[C@@H](CCCNC(=N)N)C(=O)NCC(=O)N[C@@H](CC(=O)O)C(=O)N[C@@H](CO)C(=O)O)cc4CC[C@H]3[C@@H]1CCC2O (stereo not given in full) (X1-RGDS-OH)
Response: 1.642

Request: Provide measured Activity value, entry: C[C@]12CC[C@@H]3c4ccc(OCC(=O)N[C@@H](CCCNC(=N)N)C(=O)NCC(=O)N[C@@H](CC(=O)O)C(=O)N[C@@H](Cc5ccccc5)C(=O)O)cc4CC[C@H]3[C@@H]1CCC2O (stereo not given in full) (X1-RGDF-OH)
Response: 1.635
